PROCEDURE TEXT: in vitro
CONDITION: human, liver microsomes
Description: Metabolic stability in human liver microsomes assessed as intrinsic clearance at 0.5 uM incubated for 30 mins by LC-MS/MS analysis
VALUE TYPE: CLint scaled at 0.5 h, 0.5 µM (mL/min/kg)

# example entries with known answers
1) O=C(c1ccccc1)N1CC=C(c2cc3ccccc3[nH]2)CC1 = 201
2) Cc1nc(C)c(C(=O)N2CCCC(c3cc4ncccc4[nH]3)C2)s1 (stereo not given) = 29.5
3) COc1ccc2cc(C(=O)N3CCCC(c4cc5ncccc5[nH]4)C3)[nH]c2c1 (stereo not given) = 1620
4) O=C(c1ccccc1)N1CCCC(c2cc3ncccn3n2)C1 (stereo not given) = 468

[A] CCN(C(=O)CCc1nc2ncccc2[nH]1)c1ccccc1
[B] O=C(c1cc(C(F)(F)F)no1)N1CCOC(c2cc3ncccc3[nH]2)C1 (stereo not given)
input: // task: argmin of CLint scaled at 0.5 h, 0.5 µM over [ A , B ] Give the label of your selection.
output: A
(A: 49.3 mL/min/kg, B: 118 mL/min/kg)
